Read-out: Human Leukocyte Antigen - DR isotype (HLADR), HLA-DRA (gene 3122)
Assay: BSK_CASM3C_HLADR: BioMAP Diversity Plus: CASM3C Assay for Human Leukocyte Antigen - DR isotype (HLADR) Biomarker Activity (AID 2283043);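 further: cell-surface HLA-DR protein level quantified by ELISA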
Conditions: primary human coronary artery smooth muscle cells; actives raise or lower the signal
Calls of active or inactive are those of the source. How the source made its calls: active means hit-call score of the fitted dose curve at least 0.9, where 1 is the maximum; inactive means score below 0.9.
One label from this list, please: True (active), False (inactive)

Hey, what did the test say about `Cc1[nH]cnc1C[C@H]1CCc2c(C)c3ccccc3n2C1=O` ?
False

Outcome? COc1ccc(-n2nc(C(F)F)cc2-c2ccc(S(C)=O)cc2)cc1 (stereo not given)
False

Record lookup: outcome of this test for `CC(C)CCCCCCOC(=O)c1ccc(C(=O)OCCCCCCC(C)C)c(C(=O)OCCCCCCC(C)C)c1` ?
False

What classification did `COCCOc1cc2cc(C(=O)NC3CCN(C(C)C)CC3)n(CC(=O)Nc3ccc(Cl)cn3)c2cn1` end up with in this test?
False

For this molecule, state the assay outcome: `CC[C@H]1CC[C@H](NCc2cc3c(cc2OC)[C@H]2C[C@H]2C(=O)N3C)[C@H](c2ccccc2)N1`
False

Please indicate how the test categorized `CCOCCOCCOCCO` .
False

Give the logged outcome of this assay for the following molecule: `Oc1ccc2c(c1)-c1ccccc1C2`
False

Outcome? `CCOCCO`
False

What classification did `NC(=O)NO` end up with in this test?
False

Test call, this molecule: `COC(=O)CC(=O)OC`
False

Which result was noted for this molecule in the test: `CCOc1cccc(-n2cc(C(=O)N3CCN(c4cc(C(=O)O)c5ccccc5c4)CC3)nc2-c2ccc(C)cc2)c1`
True

// param item: `On1ccccc1=S` ; yields the recorded call
True

In this assay, the call recorded for `CC(C)CCO` was what?
False

For this molecule, state the assay outcome: CNS(=O)(=O)c1cc(C(=O)N2CCC(CCN3C4CCC3CC(n3c(C)nc5ccccc53)C4)(c3cccc(F)c3)CC2)c(Cl)cc1F (stereo not given)
True

What was the test verdict on `COc1ccc2sc(C(=O)Nc3nnn[nH]3)c(OC(C)C)c2c1` ?
True

Query: recorded result category for CCCCC(CC)COC(=O)CCCCCCCCC(=O)OCC(CC)CCCC (stereo not given) in this test
False

Which outcome did this test record for the molecule `Nc1nc2ncc(CNc3ccc(C(=O)N[C@@H](CCC(=O)O)C(=O)O)cc3)nc2c(=O)[nH]1` ?
False

Which outcome was assigned to `O=P(OC(CCl)CCl)(OC(CCl)CCl)OC(CCl)CCl` in this test?
False

// outcome(item) with item = `Clc1nc(Cl)c(Cl)c(Cl)c1Cl`
False

Record lookup: outcome of this test for `Cn1c(=O)c2c(ncn2C)n(C)c1=O` ?
False

How was O=C1CCC(N2C(=O)c3ccccc3C2=O)C(=O)N1 (stereo not given) classified in this test?
False

Record lookup: outcome of this test for `C1N2CN3CN1CN(C2)C3` ?
False

Tell me the assay call for `COC(=O)c1ccccc1O` please.
False

Please let me know the test result on file for `O=C(O)c1cccc(N(Cc2cccnc2)c2ccc(OC(F)F)c(OC(F)F)c2)c1` .
True

Field: outcome | Entry: `CC(C)CCCCCCCOC(=O)CCCCC(=O)OCCCCCCCC(C)C`
False

Cited source for all entries: PubChem BioAssay (EPA / NIEHS)
